Each entry below lists one item and its recorded primary supernatant functional assay (% inh.), NF-kB luciferase reporter value.
target-under-test: T1, human IL-1RAcP on 293T/17-FR cells (human, UniProt Q9NPH3 21-570)
T1 sequence (looked up): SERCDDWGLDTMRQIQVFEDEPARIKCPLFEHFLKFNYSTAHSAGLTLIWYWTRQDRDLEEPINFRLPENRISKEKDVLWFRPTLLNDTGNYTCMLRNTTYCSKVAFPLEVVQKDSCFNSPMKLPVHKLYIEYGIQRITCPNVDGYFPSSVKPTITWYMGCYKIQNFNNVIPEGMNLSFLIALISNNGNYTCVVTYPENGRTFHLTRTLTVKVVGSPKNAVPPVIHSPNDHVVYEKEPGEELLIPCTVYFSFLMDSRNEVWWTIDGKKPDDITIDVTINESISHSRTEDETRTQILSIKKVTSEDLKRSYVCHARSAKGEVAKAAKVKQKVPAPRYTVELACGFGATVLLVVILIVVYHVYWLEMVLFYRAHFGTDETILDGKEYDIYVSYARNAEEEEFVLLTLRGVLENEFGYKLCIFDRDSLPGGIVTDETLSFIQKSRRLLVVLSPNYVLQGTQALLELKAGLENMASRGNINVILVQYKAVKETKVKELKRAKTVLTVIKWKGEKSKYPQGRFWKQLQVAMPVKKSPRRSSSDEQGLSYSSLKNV
test-description: cell-based or functional assay
measurement-type: primary supernatant functional assay (% inh.), NF-kB luciferase reporter (%)

binder | obs-value
P013.S.02.B.E02 (antibody, V domains shown, rabbit monoclonal antibody; also called P013.A.00087.E09) VH: QSVEESGGRLVTPGTPLTLTCTVSGFSLNVYNMGWVRQAPGKGLEYIGIISSSGTTYYASWAKGRFTISKTSSTTVDLKITSLTTEDTATYFCARADGYTEGDYATYFNLWGQGTLVTVSS VL: DIVMTQTPASVSEPVGGTVTIKCQASQSITTWLAWYQQKPGQPPKLLIYQASALASGVSSRFIGSGYGTEFTLTISGVQSEDAATYYCQCTYGIGSGSSYGVAFGGGTEVVVK | 85
P013.S.01.B.G03 (antibody, V domains shown, rabbit monoclonal antibody; also called P013.A.00030.C03) VH: QEQLVESGGGLVQPEGSLTLTCKASGFDFSSNYYMCWVRQAPGKGLELIACIYTNSGNTWSASWAKGRFTISKTSSTTVTLQMTSLTAADTATYFCARDLNYPDTSNLWGQGTLVTVSS VL: DIVMTQTPASVEAAVGGTVTIKCQASQSIGYYLAWYQQKPGQPPKLLISRASTLASGVPSRFKGSGSGTQFTLTISDLESADVATYYCQSYYNSDSDAFGGGTEVVVK | 89
